- systemName: T1, UNK ZnF1-3 (human, UniProt Q9C0B0 31-174)
- T1 sequence: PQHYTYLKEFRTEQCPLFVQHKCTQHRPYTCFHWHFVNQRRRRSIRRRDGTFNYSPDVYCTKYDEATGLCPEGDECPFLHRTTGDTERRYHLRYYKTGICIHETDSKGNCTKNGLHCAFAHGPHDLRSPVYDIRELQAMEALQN
- methodSummary: nsRBNS (natural sequence RNA bind-n-seq); RBNS binding buffer (assumed for nsRBNS): 25 mM Tris pH 7.5, 150 mM KCl, 3 mM MgCl2, 0.01% Triton X-100, 500 ug/ml BSA, 20 U/ml SUPERase-In, 4 C; UNK is unkempt and MSI1 is Musashi-1; names of the RNAs are library labels; protein concentration not given here; high values mean tight binding
The full ranking holds about 24,000 sequences; the median of “enrichment r” is about 0.99, and the highest 2% start at about 3.7. The sample as a whole holds a higher share of the highest values than the screen did.
valueType: binding signal (enrichment R)
Give your result in enrichment R as a bare value.

Briefly, binding signal measured for chr8:110352747:110352748:+_ENSG00000120533_ENST00000521662|hu_mus|FALSE|FALSE (ssRNA) RNA: GGGAGUUCUACAGUCCGACGAUCCAGGGCUCUGCCUUUUGGAGUGAUUUCAGCCACCAAGUCAUCAACAGUAACGUGUUCUAGUCCUUUUUCUUUAAUUACCUCUUUACAGUGUGCCUUUAGCUGAUCCUUCCAGCCGCACUCCAACAGAGGAUUGAGCAUCA : 0.801

The binder chr2:42509997:42509998:+_ENSG00000143924_ENST00000318522|hu_mus|hu_hu_hu_mus_True|78_78 (ssRNA) RNA: GGGAGUUCUACAGUCCGACGAUCUCGCUGAGUCCUCUCCUCAUAAUUAAACAGGACUACUACUGAUGCGAUAAAAUAAACUAUCUCCCCUGUGGGAAGCAGGUAUACAUUCGCUCUACAGUCCUUUCCUCGAUAACCGUAUACCAACAGAGGAUUGAGCAUCA showed binding signal equal to 0.957

Looking up chr1:66480114:66480115:+_ENSMUSG00000015222_ENSMUST00000024639|mus_hu|mus_mus_mus_hu_True|28_28 (ssRNA) RNA: GGGAGUUCUACAGUCCGACGAUCUGGCCUGUGGCGGAUGUUCUUCAGAGAGCCACAUUUGGAUGUCACAUGGCUUAGGUCUAUUUUCUUGGUAACAAUUUGUACCUGACCCCCCUUAGGCUGGUAUUUGAUGUUGUCUGUUGACAACAGAGGAUUGAGCAUCA , I see its binding signal listed as 0.629
